system name: reuptake of noradrenaline (NA) in synaptosomes (Rattus norvegicus)
Construct: in synaptosomes as described in WO 97/16451; from tissue
Sequence (Q63380 1-617): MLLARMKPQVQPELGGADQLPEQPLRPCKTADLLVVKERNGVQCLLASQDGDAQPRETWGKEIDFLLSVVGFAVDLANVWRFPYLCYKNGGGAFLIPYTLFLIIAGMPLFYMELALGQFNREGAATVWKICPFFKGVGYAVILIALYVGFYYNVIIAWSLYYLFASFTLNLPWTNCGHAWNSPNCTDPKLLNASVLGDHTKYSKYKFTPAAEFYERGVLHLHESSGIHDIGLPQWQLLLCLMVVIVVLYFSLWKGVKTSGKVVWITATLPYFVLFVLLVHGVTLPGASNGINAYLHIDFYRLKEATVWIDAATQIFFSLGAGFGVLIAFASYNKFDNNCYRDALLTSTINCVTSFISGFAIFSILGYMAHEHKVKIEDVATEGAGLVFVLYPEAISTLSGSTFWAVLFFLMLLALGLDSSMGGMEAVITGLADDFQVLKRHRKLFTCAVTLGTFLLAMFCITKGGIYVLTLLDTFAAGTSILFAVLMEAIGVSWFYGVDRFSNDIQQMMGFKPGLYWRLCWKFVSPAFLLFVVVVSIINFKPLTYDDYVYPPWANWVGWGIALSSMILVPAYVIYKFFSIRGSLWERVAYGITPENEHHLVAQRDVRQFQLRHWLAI
protocol details: Inhibition of NA reuptake in synaptosomes
Type: biochemical
stated conditions: synaptosomes, 3H-NA; read-out: NA-uptake IC50
measured metric: IC50 (nM)
Enter your answer as a number in nM; do not include the unit.

Give its IC50 value. Item: CN1[C@@H]2CCC[C@H]1C[C@H](Oc1ccc3ccc(=O)oc3c1)C2 270

src = patent US20110136854A1
